Assay Details: gradient 5% acetonitrile 3 min, to 50% in 2 min, to 85% in 15 min, held 3 min, 100 µL/min
Conditions Used: column: Zorbax Extend-C18 2.1 x 50 mm; eluents: water / acetonitrile, 0.1% formic acid
Measurement Name: RP-LC retention time (s)

a = Cc1noc(C)c1CCC(=O)N1CCC(c2nnc(-c3ccco3)s2)CC1
b = CCN1C=C(C(=O)OCc2ccc(Cl)cc2)C(C)=NS1(=O)=O
Enquiry: Among a and b , whose measured RP-LC retention time is the smaller figure? Provide the label of your selected option as the answer.
Return: a
(a: 666 s, b: 1060 s)

P = CC(C)CN1CCn2cc(C(=O)N3CCN(c4ccc(F)cc4)CC3)nc2C1
Q = Cc1ccc(-c2nc3cnccn3c2Nc2cccc(Cl)c2C)cc1
Enquiry: // returns P or Q , whichever has the lower RP-LC retention time Lab log: write the label of the selected item as the result.
Return: P
